system.name: human CXCR3 (N-delta 4) (Homo sapiens, UniProt P49682)
Construct: CD8 leader; Flag tag; expressed in transfected cells; membranes used
Sequence (P49682 5-368 limits assumed): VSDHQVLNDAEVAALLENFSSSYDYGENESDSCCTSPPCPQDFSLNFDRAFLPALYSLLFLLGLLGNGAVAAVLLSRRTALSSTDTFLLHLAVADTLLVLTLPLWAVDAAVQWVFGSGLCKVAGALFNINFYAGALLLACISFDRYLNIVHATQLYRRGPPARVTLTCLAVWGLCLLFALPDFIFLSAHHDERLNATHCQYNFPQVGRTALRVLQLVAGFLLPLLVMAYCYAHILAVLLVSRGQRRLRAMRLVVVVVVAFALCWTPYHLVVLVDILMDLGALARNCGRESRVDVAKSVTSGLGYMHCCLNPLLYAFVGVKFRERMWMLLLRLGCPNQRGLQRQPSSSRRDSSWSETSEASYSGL
procedure.details: Human CXCR3 (N-delta 4) scintillation proximity assay (SPA), [125I] IP-10 binding
test.conditions: IC50 rating; Ba/F3-hCXCR3 (N-delta 4) membranes, 25 pM [125I] IP-10
readout.name: IC50

Task: Fill blank: measured IC50 of the compound `C[C@H]1CN(c2ncc(C(=O)Nc3ccon3)cc2Cl)CCN1C1CCN(Cc2ccc(Cl)cc2)CC1` is ____.
Result: < 25 nM

Task: Fill blank: measured IC50 of the compound `C[C@H]1CN(c2ncc(C(=O)NCc3ccc(F)c(F)c3)cc2Br)CCN1C1CCN(Cc2ccc(Cl)cc2)CC1` is ____.
Result: < 25 nM

Task: Fill blank: measured IC50 of the compound `CC[C@H]1CN(c2ncc(C(=O)NN)cc2Cl)CCN1C1CCN(C(=O)c2ccc(Br)cc2)CC1` is ____.
Result: > 100 nM

Task: Fill blank: measured IC50 of the compound `O=C(NCc1cccc(Cl)c1)c1cnc(N2CCN(C3CCN(Cc4ccc(F)cc4F)CC3)CC2)c(Cl)c1` is ____.
Result: > 100 nM

Task: Fill blank: measured IC50 of the compound `O=C(NCCOc1ccccc1)c1cnc(N2CCN(C3CCN(Cc4ccc(Cl)cc4Cl)CC3)CC2)c(Cl)c1` is ____.
Result: > 100 nM

Task: Fill blank: measured IC50 of the compound CC(c1ccc(C#N)cc1)N1CCC(N2CCN(c3ncc(C(=O)NCc4ccc(F)c(F)c4)cc3Cl)CC2)CC1 (centres unmarked) is ____.
Result: > 100 nM

Task: Fill blank: measured IC50 of the compound CC1CN(C2CCN(Cc3ccc(Cl)cc3)CC2)CCN1c1ncc(C(=O)NCCOc2ccccc2)cc1Cl (centres unmarked) is ____.
Result: 25 to 100 nM

Task: Fill blank: measured IC50 of the compound `CCNC(=O)c1cnc(N2CCN(C3CCN(C(=O)c4ccc(Cl)cc4)CC3)[C@@H](CC)C2)c(Cl)c1` is ____.
Result: < 25 nM

Task: Fill blank: measured IC50 of the compound `N#Cc1ccc(CN2CCC(N3CCN(c4ncc(C(=O)NCc5ccc(Cl)c(Cl)c5)cc4Br)CC3)CC2)cc1` is ____.
Result: 25 to 100 nM

Task: Fill blank: measured IC50 of the compound `O=C(NC1CCCCC1)c1cnc(N2CCN(C3CCN(Cc4ccc(Cl)cc4)CC3)CC2)c(Cl)c1` is ____.
Result: > 100 nM

Task: Fill blank: measured IC50 of the compound `N#Cc1ccc(CN2CCC(N3CCN(c4ncc(C(=O)NCc5ccccc5F)cc4Cl)CC3)CC2)cc1` is ____.
Result: > 100 nM

Task: Fill blank: measured IC50 of the compound `O=C(NCc1ccc(F)c(Cl)c1)c1cnc(N2CCN(C3CCN(Cc4ccc(Cl)c(F)c4)CC3)CC2)c(Cl)c1` is ____.
Result: 25 to 100 nM

Task: Fill blank: measured IC50 of the compound `CC[C@H]1CN(c2ncc(CNC(=O)NCC(F)(F)F)cc2Cl)CCN1C1CCN(Cc2ccc(Cl)cc2F)CC1` is ____.
Result: < 25 nM

Task: Fill blank: measured IC50 of the compound `N#Cc1ccc(C(=O)N2CCC(N3CCN(c4ncc(C(=O)NCC5CCCCC5)cc4Br)CC3)CC2)cc1` is ____.
Result: 25 to 100 nM

Task: Fill blank: measured IC50 of the compound `O=C(NCc1ccccc1)c1cnc(N2CCN(C3CCN(Cc4ccc(F)c(F)c4)CC3)CC2)c(Cl)c1` is ____.
Result: > 100 nM

Task: Fill blank: measured IC50 of the compound `O=C(NCc1ccc(F)cc1)c1cnc(N2CCN(C3CCN(Cc4ccc(F)cc4F)CC3)CC2)c(Cl)c1` is ____.
Result: > 100 nM

Task: Fill blank: measured IC50 of the compound `COc1ccc(CN2CCC(N3CCN(c4ncc(C(=O)NCc5cccc(Cl)c5)cc4Cl)CC3)CC2)cc1` is ____.
Result: > 100 nM

Task: Fill blank: measured IC50 of the compound `O=C(NCc1ccc(F)cc1F)c1cnc(N2CCN(C3CCN(Cc4ccc(Br)cc4)CC3)CC2)c(Cl)c1` is ____.
Result: > 100 nM

Task: Fill blank: measured IC50 of the compound `O=C(NCc1ccc(C(F)(F)F)cc1)c1cnc(N2CCN(C3CCN(Cc4ccc(Cl)cc4)CC3)CC2)c(Cl)c1` is ____.
Result: > 100 nM

Task: Fill blank: measured IC50 of the compound C[C@@H]1CN(c2ncc(C(=O)NCC3CCCCC3)cc2Cl)CCN1C1CCN(Cc2ccc(C#N)cc2)CC1 [compound 235] is ____.
Result: < 25 nM

* * *

system.name: human CXCR3 (N-delta 4) (Homo sapiens)
Construct: CD8 leader; Flag tag; expressed in transfected cells; membranes used
procedure.details: Human CXCR3 (N-delta 4) scintillation proximity assay (SPA), [125I] IP-10 binding
test.conditions: IC50 rating; Ba/F3-hCXCR3 (N-delta 4) membranes, 25 pM [125I] IP-10
readout.name: IC50

Record excerpt, results attached:
molecule	IC50
O=C(NCc1ccccc1Cl)c1cnc(N2CCN(C3CCN(Cc4ccc(Cl)cc4)CC3)CC2)c(Cl)c1	> 0.1 µM
C[C@@H]1CN(c2ncc(C(=O)NCc3ccc(F)c(F)c3)cc2Cl)CCN1C1CCN(Cc2ccc(Cl)cc2)CC1 [compound 152]	0.025 to 0.1 µM
O=C(NCc1cccc(Cl)c1)c1cnc(N2CCN(C3CCN(Cc4ccc(F)cc4)CC3)CC2)c(Cl)c1	> 0.1 µM
CC(C)C[C@H]1CN(c2ncc(C(=O)NC(C)C)cc2Cl)CCN1C1CCN(Cc2ccc(Cl)cc2)CC1	> 0.1 µM

Task: Fill blank: measured IC50 of the molecule `CC[C@H]1CN(c2ncc(C(=O)NC)cc2Cl)CCN1C1CCN(C(=O)c2ccc(Cl)cc2)CC1` is ____.
Result: < 0.025 µM

Task: Fill blank: measured IC50 of the molecule `O=C(NCc1cccc(F)c1)c1cnc(N2CCN(C3CCN(Cc4ccc(Cl)c(F)c4)CC3)CC2)c(Cl)c1` is ____.
Result: 0.025 to 0.1 µM

Task: Fill blank: measured IC50 of the molecule `N#Cc1ccc(C(=O)N2CCC(N3CCN(c4ncc(C(=O)NCc5ccc(F)cc5)cc4Cl)CC3)CC2)cc1` is ____.
Result: > 0.1 µM

Task: Fill blank: measured IC50 of the molecule `CC[C@H]1CN(c2ncc(CNS(=O)(=O)CC(F)(F)F)cc2Cl)CCN1C1CCN(Cc2ccc(Cl)cc2F)CC1` is ____.
Result: 0.025 to 0.1 µM

Task: Fill blank: measured IC50 of the molecule `O=C(NC1CCCC1)c1cnc(N2CCN(C3CCN(Cc4ccc(Br)cc4)CC3)CC2)c(Cl)c1` is ____.
Result: > 0.1 µM

Task: Fill blank: measured IC50 of the molecule `C[C@@H]1CN(c2ncc(C(=O)NCc3ccc(Cl)c(Cl)c3)cc2Cl)CCN1C1CCN(Cc2ccc(Cl)cc2)CC1` is ____.
Result: < 0.025 µM

Task: Fill blank: measured IC50 of the molecule CC[C@H]1CN(c2ncc(C(O)c3ncco3)cc2Cl)CCN1C1CCN(Cc2ccc(Cl)cc2F)CC1 (some centres unmarked) is ____.
Result: > 0.1 µM

Task: Fill blank: measured IC50 of the molecule `COc1ccc(CN2CCC(N3CCN(c4ncc(C(=O)NCCOc5ccccc5)cc4Br)CC3)CC2)cc1` is ____.
Result: 0.025 to 0.1 µM

Task: Fill blank: measured IC50 of the molecule CC1(C)C2CCC(CNC(=O)c3cnc(N4CCN(C5CCN(Cc6ccc(Cl)cc6)CC5)CC4)c(Br)c3)C1C2 (centres unmarked) [compound 9] is ____.
Result: > 0.1 µM

Task: Fill blank: measured IC50 of the molecule `C[C@@H]1CN(C2CCN(Cc3ccc([N+](=O)[O-])cc3)CC2)CCN1c1ncc(C(=O)NCc2ccc(Cl)c(Cl)c2)cc1Cl` is ____.
Result: 0.025 to 0.1 µM

Task: Fill blank: measured IC50 of the molecule `O=C(NCCOc1ccccc1)c1cnc(N2CCN(C3CCN(Cc4ccc(Cl)c(F)c4)CC3)CC2)c(Cl)c1` is ____.
Result: 0.025 to 0.1 µM

Task: Fill blank: measured IC50 of the molecule `C[C@H]1CN(c2ncc(C(=O)NCc3ccc(F)c(F)c3)cc2Cl)CCN1C1CCN(C(=O)c2ccc(Cl)cc2)CC1` is ____.
Result: 0.025 to 0.1 µM

Task: Fill blank: measured IC50 of the molecule `N#Cc1ccc(CN2CCC(N3CCN(c4ncc(C(=O)NCc5ccc(F)c(F)c5)cc4Cl)CC3)CC2)cc1` is ____.
Result: 0.025 to 0.1 µM

Task: Fill blank: measured IC50 of the molecule `O=C(NCc1ccc(Cl)c(Cl)c1)c1cnc(N2CCN(C3CCN(Cc4ccc([N+](=O)[O-])cc4)CC3)CC2)c(Cl)c1` is ____.
Result: < 0.025 µM

Task: Fill blank: measured IC50 of the molecule `COc1ccc(CN2CCC(N3CCN(c4ncc(C(=O)NCc5ccc(Cl)c(Cl)c5)cc4Br)CC3)CC2)cc1` is ____.
Result: 0.025 to 0.1 µM

Task: Fill blank: measured IC50 of the molecule `O=C(NCc1ccc(F)cc1)c1cnc(N2CCN(C3CCN(Cc4ccc(Br)cc4)CC3)CC2)c(Cl)c1` is ____.
Result: 0.025 to 0.1 µM
